- Test system: OVCAR4
- EXPERIMENT NOTES: Euclidean distance of Cell Painting phenotypic profile (signed KS, 77 features) to DMSO centroid (dimensionless distance); 5 or 10 uM (library dependent); higher = stronger phenotypic change vs DMSO (phenoactivity)
- SETUP CONDITIONS: 48 h
TEST READOUT: Euclidean distance
One number for each entry.

Illustrative cases are given below, each with its answer.
Field request: Euclidean distance | item: `CNC(=O)c1cccc(-c2ccc3c(N4CCOC[C@@H]4C)nc(N4CCOC[C@@H]4C)nc3n2)c1` 4.15

For `C#Cc1cccc(Nc2ncnc3cc4c(cc23)OCCOCCOCCO4)c1` , what is its reported Euclidean distance? 1.32

Fill in: Euclidean distance of `O=C1NC(=O)/C(=C/c2ccc(-c3ccc(F)cc3O)o2)S1` is ___ 0.97

Now, please, on to the next compound.
Returns the measured Euclidean distance for the input compound. Input: CC(=O)O[C@H]1CC[C@@]2(C)C(=CC[C@@H]3[C@@H]2CC[C@]2(C)C(c4cccnc4)=CC[C@@H]32)C1 [Abiraterone Acetate] 0.818
